Test system: IL-1
Assay: Induction of IL-1 by LPS in THP-1 cells (ELISA)
Assay type: cell-based
Settings: Homo sapiens, THP-1, THP-1 cells, serum-free medium (500 µg/ml BSA); cytokine not named; read-out: IC50 in serum-free medium

compound	test_target	IC50
CCSCc1ccc2c(c1)c1c3c(c4c5cc(CSCC)ccc5n5c4c1n2C1CC(O)(C(=O)OC)C5(C)O1)CNC3=O (stereo not shown)	IL-1	23 nM

====

Target: MLK-3 (Homo sapiens)
Construct: A full length cDNA of human MLK-3, MLK-2, or mouse DLK; expressed in transfected cells; host or cells: Cos7
Sequence (Q16584 whole entry): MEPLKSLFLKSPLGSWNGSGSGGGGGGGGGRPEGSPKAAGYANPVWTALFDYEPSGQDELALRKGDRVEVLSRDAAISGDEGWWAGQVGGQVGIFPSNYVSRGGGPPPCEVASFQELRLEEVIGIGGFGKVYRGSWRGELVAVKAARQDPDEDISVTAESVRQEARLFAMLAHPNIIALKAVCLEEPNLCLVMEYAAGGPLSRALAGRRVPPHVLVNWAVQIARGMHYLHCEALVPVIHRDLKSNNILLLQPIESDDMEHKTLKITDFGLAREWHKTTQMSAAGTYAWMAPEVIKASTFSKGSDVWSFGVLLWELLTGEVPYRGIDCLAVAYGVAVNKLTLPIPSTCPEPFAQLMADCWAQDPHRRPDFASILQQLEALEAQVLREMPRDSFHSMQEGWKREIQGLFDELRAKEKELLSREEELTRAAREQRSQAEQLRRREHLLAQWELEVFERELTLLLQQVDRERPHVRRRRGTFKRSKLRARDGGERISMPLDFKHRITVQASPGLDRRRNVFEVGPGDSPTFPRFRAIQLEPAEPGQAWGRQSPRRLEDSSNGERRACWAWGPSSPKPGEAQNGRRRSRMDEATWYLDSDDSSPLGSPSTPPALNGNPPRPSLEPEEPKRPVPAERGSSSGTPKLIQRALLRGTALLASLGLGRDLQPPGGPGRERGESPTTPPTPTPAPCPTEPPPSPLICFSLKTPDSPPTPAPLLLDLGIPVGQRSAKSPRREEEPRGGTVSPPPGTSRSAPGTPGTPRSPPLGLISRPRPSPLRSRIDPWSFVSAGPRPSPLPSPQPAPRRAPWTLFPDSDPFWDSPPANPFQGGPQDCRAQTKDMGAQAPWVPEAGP
Assay: JNK activity (immunoprecipitation/kinase assay) in Cos7 cells overexpressing MLK-3 and HA-JNK1
Format: cell-based
Settings: COS-7; 500 nM for 2hr; control is JNK activity in the presence of DMSO; read-out: % Inhibition of JNK Activity (average) MLK3 in Cos7 cells
Threshold check on inhibition at 0.5 µM: at or above 90% gives MET, strictly below gives NOT MET.

molecule	assigned_category
CCSCc1ccc2c(c1)c1c3c(c4c5cc(CSCC)ccc5n5c4c1n2C1CC(O)(C(=O)OC)C5(C)O1)CNC3=O (stereo not shown) [III-3]	MET
CCCCCOC(=O)C1(O)CC2OC1(C)n1c3ccccc3c3c4c(c5c6ccccc6n2c5c31)C(=O)NC4 (stereo not shown) [III-4]	NOT MET
CCNC(=O)Nc1ccc2c(c1)c1c3c(c4c5cc(CCc6ccccn6)ccc5n5c4c1n2C1CC(O)(C(=O)OC)C5(C)O1)CNC3=O (stereo not shown) [III-1]	NOT MET
COC(=O)C1(O)CC2OC1(C)n1c3ccccc3c3c4c(c5c6ccccc6n2c5c31)C(=O)NC4 (stereo not shown) [III-9]	MET
COC(=O)C1(O)CC2OC1(C)n1c3ccc(CCSC)cc3c3c4c(c5c6cc(CCSC)ccc6n2c5c31)C(=O)NC4 (stereo not shown) [III-10]	NOT MET
CCOCOCc1ccc2c(c1)c1c3c(c4c5cc(COCOCC)ccc5n5c4c1n2C1CC(O)(C(=O)OC)C5(C)O1)CNC3=O (stereo not shown) [III-2]	MET

====

Test system: IL-2
Assay: Induction of IL-2 in Jurkat cells by anti CD3 and anti CD28 antibodies (ELISA)
Format: cell-based
Details: Homo sapiens; Jurkat cells (Fig. 23C)
property: IC50 (nM)

molecule	unit_of_measurement	recorded_result
CCSCc1ccc2c(c1)c1c3c(c4c5cc(CSCC)ccc5n5c4c1n2C1CC(O)(C(=O)OC)C5(C)O1)CNC3=O (stereo not shown)	nM	139

====

# Lookup of reported inhibition at 0.5 µM keyed by entry
Biological target: MLK-3 (Homo sapiens)
Construct: A full length cDNA of human MLK-3, MLK-2, or mouse DLK; expressed in transfected cells; host or cells: Cos7
Assay: JNK activity (immunoprecipitation/kinase assay) in Cos7 cells overexpressing MLK-3 and HA-JNK1
Format: cell-based
Settings: COS-7; read-out: Overexpressed MLK3 in Cos 7 Cells JNK % inh. 500 nM

molecule	test_target	inhibition at 0.5 µM [%]
CCNC(=O)Nc1ccc2c(c1)c1c3c(c4c5cc(CCc6ccccn6)ccc5n5c4c1n2C1CC(O)(C(=O)OC)C5(C)O1)CNC3=O (stereo not shown)	MLK-3 (Homo sapiens)	83.8
CCSCc1ccc2c(c1)c1c3c(c4c5cc(CSCC)ccc5n5c4c1n2C1CC(O)(C(=O)OC)C5(C)O1)CNC3=O (stereo not shown)	MLK-3 (Homo sapiens)	94
COC(=O)C1(O)CC2OC1(C)n1c3ccc(CCSC)cc3c3c4c(c5c6cc(CCSC)ccc6n2c5c31)C(=O)NC4 (stereo not shown)	MLK-3 (Homo sapiens)	78
CCCCCOC(=O)C1(O)CC2OC1(C)n1c3ccccc3c3c4c(c5c6ccccc6n2c5c31)C(=O)NC4 (stereo not shown)	MLK-3 (Homo sapiens)	66
